Target: TSLP, Q969D9
Test: Kd (SPR)
reported.metric: pKd
pKd here is simply -log10 of the concentration when that concentration is written in mol/L.

>>> number("unnamed (protein) chain 1: QMQLVESGGGVVQPGRSLRLSCAASGFTFRTYGMHWVRQAPGKGLEWVAVIWYDGSNKHYADSVKGRFTITRDNSKNTLNLQMNSLRAEDTAVYYCARAPRYDDLYEAFDVWGQGTMVTVSS chain 2: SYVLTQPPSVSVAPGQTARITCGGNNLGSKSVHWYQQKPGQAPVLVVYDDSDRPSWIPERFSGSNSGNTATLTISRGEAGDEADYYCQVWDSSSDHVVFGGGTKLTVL")
6.91

Could you now look at the following binder, please?
Note to self: pKd recorded for unnamed (protein) chain 1: QMQLVESGGGVVQPGRSLRLSCAASGFTFRTYGMHWVRQAPGKGLEWVAVIWYDGSNKHYADSVKGRFTITRDNSKNTLNLQMNSLRAEDTAVYYCARSPRYDEYWEAFDVWGQGTMVTVSS chain 2: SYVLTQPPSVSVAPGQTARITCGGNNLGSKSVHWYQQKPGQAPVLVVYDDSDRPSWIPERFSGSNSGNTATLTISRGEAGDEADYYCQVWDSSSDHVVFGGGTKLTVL was 6.43

FYI, the data here is from the FLAb antibody collection (doi:10.1101/2023.12.08.570889).
